Reference source for all entries: the supplement of paper PMC10657565

Test system: SKBR3
Assay: relative cell viability vs DMSO control (% of DMSO control); higher = less growth inhibition (higher viability)
Details: 0.03 µM; treatment time: 72 h
Listed below: relative cell viability values for each entry.
observedProperty: relative cell viability

• COCCN1CCN(Cc2ccc(-c3n[nH]c4c3C(=O)c3c(NC(=O)NN5CCOCC5)cccc3-4)cc2)CC1 = 50
• Cc1c(F)cc(C(=O)NC2CC2)cc1-c1ccc(C(=O)NCC(C)(C)C)cn1 = 101
• COC(=O)[C@@]1(O)C[C@H]2O[C@]1(C)n1c3ccccc3c3c4c(c5c6ccccc6n2c5c31)C(=O)NC4 [K-252a] = 87.8
• Cc1cc(Nc2ncc(Cl)c(Nc3ccccc3S(=O)(=O)C(C)C)n2)c(OC(C)C)cc1C1CCNCC1 = 102
• COc1cc2ncnc(Nc3ccc(O)cc3)c2cc1OC = 107
• COCc1c(-c2ccc(NC(=O)Nc3cc(C(F)(F)F)ccc3F)c(F)c2)c2c(N)ncnn2c1CN1CCOCC1 = 107
• CC(C)c1cc(CNc2nc(Nc3cc(C4CC4)[nH]n3)cc(N3CCN(C)CC3)n2)on1 = 101
• c1cc(OCCN2CCCCC2)cc(-c2n[nH]c3ccc(-c4nnc[nH]4)cc23)c1 = 105
